# System: p-ERK in AsPC-1 cells (KRAS G12D mutation)
# method description: Cell p-ERK assay (HTRF) in AsPC-1 cells
# Assay type: cell-based, human
# condition context: Homo sapiens, ASPC1, 3 h, AsPC-1 cells, 3 h compound incubation, HTRF p-ERK T202/Y204; read-out: AsPC-1 p-ERK IC50
Entries and their IC50
Number only, in nM; omit the unit.

# molecule, IC50, nM
rows = [
    ("CCn1c(-c2cc(OCCN3CCS(=O)(=NC)CC3)cnc2[C@H](C)OC)c2c3cc(ccc31)-c1csc(n1)C[C@H](NC(=O)[C@H]1[C@H](C)[C@@H]1C)C(=O)N1CCC[C@H](N1)C(=O)OCC(C)(C)C2 (atropisomer, axis not shown; (Ra))", 0.49),
    ("CCn1c(-c2cc(N3CCN(C)CC3)cnc2[C@H](C)OC)c2c3cc(ccc31)-c1csc(n1)C[C@H](Nc1nnc3ccc(C)cn13)C(=O)N1CCC[C@H](N1)C(=O)OCC(C)(C)C2 (atropisomer, axis not shown; (Ra))", 69.4),
]

Prompt: Please give the measured IC50 for this molecule: CO[C@@H](C)c1ncc(C#CCN2CCS(=O)(=O)CC2)cc1-c1c2c3cc(ccc3n1CCO)-c1csc(n1)C[C@H](NC(=O)[C@H]1[C@H](C)[C@@H]1C)C(=O)N1CCC[C@H](N1)C(=O)OCC(C)(C)C2 (atropisomer, axis not shown; (Ra))
Completion: 0.53

Prompt: Please give the measured IC50 for this molecule: CCn1c(-c2cc(C#CCN3CCCOCC3)cnc2[C@H](C)OC)c2c3cc(ccc31)-c1csc(n1)C[C@H](NC(=O)C[C@H]1CC1(F)F)C(=O)N1CCC[C@H](N1)C(=O)OCC(C)(C)C2 (atropisomer, axis not shown; (Ra))
Completion: 2.62

---

# Tested on: p-ERK in NCI-H441 cells (KRAS G12V mutation)
# method description: Cell p-ERK assay (HTRF) in NCI-H441 cells
# Format: cell-based, human
# condition context: NCI-H441 cells, 3 h compound incubation, HTRF p-ERK T202/Y204; read-out: H441 p-ERK IC50
pIC50: −log10 of the molar value.
# cutoff 9 applies to pIC50; >= gives y, < gives n

Field: example entries. Status: answers known.
# compound, study target, label
data = [
    ("CCn1c(-c2cc(N3CCN(C)CC3)cnc2[C@H](C)OC)c2c3cc(ccc31)-c1csc(n1)C[C@H](NC(=O)C(C)(C)F)C(=O)N1CCC[C@H](N1)C(=O)OCC(C)(C)C2 (atropisomer, axis not shown; (Ra)) [Compound Z66]", "p-ERK in NCI-H441 cells (KRAS G12V mutation)", "n"),
    ("CCn1c(-c2cc(N3CCN4CCOC[C@@H]4C3)cnc2[C@H](C)OC)c2c3cc(ccc31)-c1csc(n1)C[C@H](NC(=O)[C@H]1[C@H](C)[C@@H]1C)C(=O)N1CCC[C@H](N1)C(=O)OCC(C)(C)C2 (atropisomer, axis not shown; (Ra)) [Compound Z73]", "p-ERK in NCI-H441 cells (KRAS G12V mutation)", "y"),
    ("CCn1c(-c2cc(C#CCN3CC4CCC(C3)N4C(C)=O)cnc2[C@H](C)OC)c2c3cc(ccc31)-c1csc(n1)C[C@H](Nc1nnc3cc(C)ccn13)C(=O)N1CCC[C@H](N1)C(=O)OCC(C)(C)C2 (atropisomer, axis not shown; (Ra)) [Compound Z1014]", "p-ERK in NCI-H441 cells (KRAS G12V mutation)", "n"),
    ("C=C1CN(CC#Cc2cnc([C@H](C)OC)c(-c3c4c5cc(ccc5n3CC)-c3csc(n3)C[C@H](NC(=O)[C@H]3[C@H](C)[C@@H]3C)C(=O)N3CCC[C@H](N3)C(=O)OCC(C)(C)C4)c2)C1 [Compound Z1034]", "p-ERK in NCI-H441 cells (KRAS G12V mutation)", "y"),
    ("CO[C@@H](C)c1ncc(C#CCN2CCCOCC2)cc1-c1c2c3cc(ccc3n1CC(F)(F)F)-c1csc(n1)C[C@H](NC(=O)[C@H]1[C@H](C)[C@@H]1C)C(=O)N1CCC[C@H](N1)C(=O)OCC(C)(C)C2 (atropisomer, axis not shown; (Ra)) [Compound Z700]", "p-ERK in NCI-H441 cells (KRAS G12V mutation)", "y"),
]

Prompt: pIC50 >= 9 for C=C1CCN2CCN(c3cnc([C@H](C)OC)c(-c4c5c6cc(ccc6n4CC)-c4csc(n4)C[C@H](NC(=O)[C@H]4[C@H](C)[C@@H]4C)C(=O)N4CCC[C@H](N4)C(=O)OCC(C)(C)C5)c3)C[C@H]2C1 (atropisomer, axis not shown; (Sa)) [Compound Z549] ?
Completion: n

Prompt: pIC50 >= 9 for CCn1c(-c2cc(OCCN3CCS(=O)(=O)CC3)cnc2[C@H](C)OC)c2c3cc(ccc31)-c1csc(n1)C[C@H](NC(=O)[C@H]1[C@H](C)[C@@H]1C)C(=O)N1CCC[C@H](N1)C(=O)OCC(C)(C)C2 (atropisomer, axis not shown; (Ra)) [Compound Z469] ?
Completion: y

The measurements presented in this section are drawn from patent US20260234165A1.
